# Experiment description: NCI Yeast Anticancer Drug Screen. Data for the mec2-1 strain (AID 157)
# Experimental context: S. cerevisiae mec2-1 strain, at 5.0 µM (retest, dose inferred, filed as 0.5), active compounds read high
This is part of a sample that, as a whole, favours compounds with a hit. Of some 79,000 tested, about 15% had one in any assay. Active and inactive are the calls of the source. Rule as the data show it: active = growth inhibition above about 70%; inactive = the rest.
Property measured: growth inhibition

C[N+]1(c2ccccc2)C=C(c2ccccc2)SC1=S (centres undefined) ... 25% (inactive)
CCCCNCCCNCCCNC(=O)c1csc(-c2csc(CCNC(=O)C(NC(=O)C(C)C(O)C(C)NC(=O)C(NC(=O)c3nc(C(CC(N)=O)NCC(N)C(N)=O)nc(N)c3C)C(OC3OC(CO)C(O)C(O)C3OC3OC(CO)C(O)C(OC(N)=O)C3O)c3cnc[nH]3)C(C)O)n2)n1 (centres undefined) ... 98% (active)
C=CS(=O)(=O)c1ccc(Cl)cc1 ... -19% (inactive)
CC1CCN(C(=S)NNC(C)c2cc3ccccc3cn2)CC1 (centres undefined) ... 60% (inactive)

----------
# Experiment description: NCI Yeast Anticancer Drug Screen. Data for the sgs1 mgt1 strain (AID 161);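 also: 0% = growth of cultures given vehicle only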
# Experimental context: S. cerevisiae sgs1 mgt1 strain, at 50.0 µM (retest, dose inferred, filed as 5.0), active compounds read high
The panel holds about 79,000 compounds, 15% with a hit somewhere; the sample as a whole holds those more often.
So basically: growth inhibition at 80% or higher? That is Fulfilled. Lower than 80%? That is Not fulfilled.

O=NNc1ncccc1OCc1ccccc1 ... Not fulfilled
O=C(O)Cc1cccc2cc3c(ccc4ccccc43)cc12 ... Not fulfilled
O=C1CCSC(=S)N1c1ccc(Br)c(Cl)c1 ... Fulfilled
CSC(=S)N/N=C(\C)c1ccc[nH]1 ... Fulfilled
O=c1[nH]c2ccc([N+](=O)[O-])cc2c2ccc(Cl)cc12 ... Not fulfilled
O=c1c(-c2ccccc2)c(-c2ccccc2)c1=O ... Not fulfilled
Cc1cc(N=[N+]=[N-])c2cc(C3CCCCC3)ccc2n1 ... Fulfilled
ClC(Cl)(Cl)C1=CC2c3ccccc3C1c1ccccc12 ... Fulfilled
Cc1ccc(NC(=O)CC2SC(N)=NC2=O)cc1C (stereo not drawn) ... Not fulfilled
CCN(CC)COC(=S)S ... Fulfilled
Cc1c2ncccc2cc2oc3ccccc3c(=O)c12 ... Not fulfilled

----------
# Experiment description: NCI Yeast Anticancer Drug Screen. Data for the bub3 strain (AID 167)
# Experimental context: S. cerevisiae bub3 mutant strain, at 50.0 µM (retest, dose inferred, filed as 5.0), active compounds read high
This is part of a sample that, as a whole, favours compounds with a hit. Of some 79,000 tested, about 15% had one in any assay.
The following compounds are listed with their measured growth inhibition values.
Property measured: growth inhibition (%)

CN1C(=O)CCC2[C@@H]3CC=C4C[C@@H](O)CC[C@]4(C)C3CC[C@@]21C (stereo not given in full) ... 66
C/C(=N\NC(=S)NC12CC3CC(CC(C3)C1)C2)c1ccccn1 ... 97
CC(C)COP(=O)(OCC(C)C)C(NS(=O)(=O)c1ccccc1)(C(F)(F)F)C(F)(F)F ... 8
Cc1ccc(Nc2nc(C)c(C(=O)C/C(=N\NC(N)=S)C(=O)Nc3ccc(Cl)cc3C)s2)cc1 ... 5
Cc1ccc(O)c(C(C)(C)c2ccccc2)c1 ... 95

The origin of these recorded values is PubChem BioAssay (NCI).
